Counter-ions that a name gives are not always drawn.
human 5-HT2B receptor (Homo sapiens): reported Ki for various compounds.
Sequence (P41595 whole entry): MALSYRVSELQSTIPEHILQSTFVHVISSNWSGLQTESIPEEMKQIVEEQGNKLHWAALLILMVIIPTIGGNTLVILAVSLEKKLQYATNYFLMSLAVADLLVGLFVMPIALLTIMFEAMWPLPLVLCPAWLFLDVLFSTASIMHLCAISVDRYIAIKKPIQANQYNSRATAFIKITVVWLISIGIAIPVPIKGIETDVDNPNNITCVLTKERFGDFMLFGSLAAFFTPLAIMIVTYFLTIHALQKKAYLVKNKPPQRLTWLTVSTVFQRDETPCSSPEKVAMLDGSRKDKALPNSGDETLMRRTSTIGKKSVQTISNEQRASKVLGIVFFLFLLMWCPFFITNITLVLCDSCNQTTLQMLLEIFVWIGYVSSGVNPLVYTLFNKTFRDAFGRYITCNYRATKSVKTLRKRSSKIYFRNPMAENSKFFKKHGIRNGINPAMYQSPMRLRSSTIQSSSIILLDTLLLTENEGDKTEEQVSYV
Endpoint label: Ki (nM)

// worked examples, Ki included
{"columns": ["Compound", "Ki [nM]"],
 "data": [
  ["CCc1c(C)n(Cc2ccc(F)cc2)c2ccc(C(=O)NCCN(C)C)cc12", 0.19],
  ["CCc1c(C)n(Cc2ccc(F)cc2)c2ccc(C(=O)N[C@@H]3CCN(C)C3)cc12", 0.24],
  ["CC(=O)c1c(C)n(Cc2ccc(F)cc2)c2ccc(C(=O)N=C(N)N)cc12", 0.088]
]}

[I] CCc1c(C)n(Cc2ccc(F)cc2)c2ccc(C(=O)N=C(N)N)cc12
[II] CCc1c(CC)n(Cc2ccc(F)cc2)c2ccc(C(=O)N[C@H]3CCN(C)C3)cc12
[III] NC(N)=NC(=O)c1ccc2c(c1)[nH]c(=O)n2Cc1ccc(F)cc1 [Example 10, hydrochloride]
### Prompt Exam item: list the entries in increasing order of Ki. Lab note: final answer is the ordered label list.
### Response I, II, III

====

- System name: human 5-HT7 receptor (Homo sapiens, UniProt P34969)
- Sequence (P34969 whole entry): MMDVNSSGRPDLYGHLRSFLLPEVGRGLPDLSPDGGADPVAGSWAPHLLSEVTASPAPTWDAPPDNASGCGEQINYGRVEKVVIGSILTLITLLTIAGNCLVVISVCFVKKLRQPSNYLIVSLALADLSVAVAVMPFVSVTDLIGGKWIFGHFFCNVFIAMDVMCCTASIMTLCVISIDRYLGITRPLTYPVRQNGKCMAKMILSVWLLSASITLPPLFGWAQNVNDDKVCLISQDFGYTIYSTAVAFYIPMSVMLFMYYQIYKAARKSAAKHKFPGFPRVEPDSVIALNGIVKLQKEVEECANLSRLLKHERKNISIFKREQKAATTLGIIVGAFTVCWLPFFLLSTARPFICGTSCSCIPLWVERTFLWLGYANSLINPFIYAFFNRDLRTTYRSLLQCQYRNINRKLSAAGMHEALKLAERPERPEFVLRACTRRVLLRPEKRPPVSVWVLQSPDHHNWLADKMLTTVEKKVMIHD
Where a name gives a salt, the structure may show the parent alone.
Endpoint label: Ki (nM)

{"columns": ["Compound", "Unit label", "Ki"],
 "data": [
  ["Cc1c(C)n(Cc2ccc(F)cc2)c2ccc(C(=O)NCCN(C)C)cc12", "nM", 3.4],
  ["CC(=O)c1c(C)n(Cc2ccc(F)cc2)c2ccc(C(=O)N=C(N)N)cc12", "nM", 1.3]
]}

[1] NC(N)=NC(=O)c1ccc2c(c1)[nH]c(=O)n2Cc1ccc(F)cc1 [Example 10, hydrochloride]
[2] CCc1c(C)n(Cc2ccc(F)cc2)c2ccc(C(=O)NCCN(C)C)cc12
### Prompt Identify the entry with the larger Ki. Options: 1 and 2 Refer to your chosen entry by its label in the reply.
### Response 2
